Tested on: U2OS
Method Notes: Multiplex assay against U2OS
Assay type: toxicity, cell-based
Condition Info: human, 48 h, 10 µM, compound concentration 10 uM, replicate 2
Readout: Population Mitochondria Different-Phenotype (%)
Write the value in % as a bare number.

Please review the entries below; each comes with its answer.
compound=COc1cc(C(=O)N(CCCc2ccccc2)Cc2ccc(CC(=O)O)cc2)cc(OC)c1C result_number=1
compound=CN(C)CCCc1cc(C(=O)Nc2ccc(-c3ccncc3)cc2)ccc1O.Cl.Cl result_number=8
compound=COc1cc(NC(=O)CCN2CCC(OC(=O)Nc3ccccc3-c3ccccc3)CC2)c(Cl)cc1CNC[C@H](O)c1ccc(O)c2[nH]c(=O)ccc12 result_number=70
compound=O=C(NCC(=O)N1CC[C@H](N[C@H]2CC[C@@](O)(c3ccc(-c4ncccn4)cn3)CC2)C1)c1cccc(C(F)(F)F)c1 result_number=8
compound=CC(C)(C)c1ccc(S(=O)(=O)Nc2ccc(Cl)cc2C(=O)c2cc[n+]([O-])cc2)cc1 result_number=5
compound=O=C1COc2nccc(-c3ccccc3F)c2CN1Cc1cc(C(F)(F)F)cc(C(F)(F)F)c1 result_number=12
compound=CSCC[C@H](NC=O)C(=O)N[C@@H](CC(C)C)C(=O)N[C@@H](Cc1ccccc1)C(=O)O result_number=50
compound="Cc1ccccc1C(=O)Nc1ccc(C(=O)N2CCCC(N(C)C)c3ccccc32)cc1.Cl (stereo not drawn)" result_number=30

Quick note, Population Mitochondria Different-Phenotype (%) for "N#Cc1c(N)nc(SCc2csc(-c3ccc(Cl)cc3)n2)c(C#N)c1-c1ccc(OCCO)cc1" landed at 45

Quick note, Population Mitochondria Different-Phenotype (%) for CN1CCN2c3ncccc3Cc3ccccc3C2C1 (stereo not drawn) landed at 3

Quick note, Population Mitochondria Different-Phenotype (%) for "Cc1nc2ccc(Oc3ccc(F)cc3)cc2c(=O)n1C[C@H]1CCCN(C(C)C)C1.Cl" landed at 41

Quick note, Population Mitochondria Different-Phenotype (%) for "O=C(O)c1cc2ccccc2c(Cc2c(O)c(C(=O)O)cc3ccccc23)c1O" landed at 2

Quick note, Population Mitochondria Different-Phenotype (%) for "C[C@H]1[C@H]2CC[C@H]3[C@@H]4CC=C5C[C@@H](N(C)C)CC[C@]5(C)[C@H]4CC[C@]23CN1C" landed at 5

###

Tested on: HEK-293T
Method Notes: Multiplex assay against HEK293T
Type: toxicity, cell-based
Condition Info: human, 24 h, 10 µM, compound concentration 10 uM, replicate 1
Just a reminder that ties go to no: only Population Normal (%) strictly below 90% counts as yes.

compound=CC(C)(C)c1ccc(S(=O)(=O)Nc2ccc(Cl)cc2C(=O)c2cc[n+]([O-])cc2)cc1 class_assignment=no
compound=COc1ccccc1N1CCN(CCCCNC(=O)c2ccc3ccccc3c2)CC1.Cl class_assignment=yes
compound=Oc1c(CN2CCN(c3ccccn3)CC2)cc(Cl)c2cccnc12 class_assignment=yes

With those in mind, consider the next compound.
Decide: Population Normal (%) of O=S(=O)(c1ccccc1)c1cnc2c(N3CCNCC3)cccc2c1 [INTEPIRDINE] strictly below 90%?
no

###

Quick reference: Population Fragmented Nuclei (%) of the listed items.
Test system: HEK-293T
Method Notes: Multiplex assay against HEK293T
Assay type: toxicity, cell-based
Condition Info: human, 48 h, 1 µM, compound concentration 1 uM, replicate 1
Write the value in % as a bare number.

compound="Cl.Clc1ccc2nsnc2c1NC1=NCCN1 [TIZANIDINE HYDROCHLORIDE]" uom=% result_number=16
compound=CC(C)(C)c1ccc(S(=O)(=O)Nc2ccc(Cl)cc2C(=O)c2cc[n+]([O-])cc2)cc1 uom=% result_number=16
compound=CCCC(CCC)C(=O)O uom=% result_number=14
compound="CN1CCN2c3ncccc3Cc3ccccc3C2C1 (centres undefined)" uom=% result_number=11

Population Fragmented Nuclei (%) value, target or system HEK-293T, for "Oc1c(CN2CCN(c3ccccn3)CC2)cc(Cl)c2cccnc12" : 12

Value source: ChEMBL document CHEMBL5058577
